tested on: UACC-257 melanoma; assay: NCI tumour cell line growth inhibition, 48 h
value-kind: GI50

Quick note, GI50 for CCN1C(=O)N(c2ccccc2)C2NC(=S)N(/N=C/C=C/c3ccccc3OC)C21 (configuration not stated) landed at 3.44 µM

// GI50 lookup, compound = `O=C(CCCSc1nc(-c2ccccc2)cc(-c2ccccc2)n1)NO` , result: 1.77 µM

GI50 recorded for this compound, `N[C@@H]1CCCC[C@@H]1N.O=P([O-])([O-])CN(CCN(CP(=O)([O-])[O-])CP(=O)([O-])[O-])CP(=O)([O-])[O-].[Pt+2]` , is > 25 µM

Entry `O=c1ccc2ccccc2cc1[O-].O=c1ccc2ccccc2cc1[O-].[O]=[U+2]=[O]` ; GI50 = 6.19 µM

Record `COCCOc1ccc(-c2nc3ccc(-c4nc5ccc(N6CCN(C)CC6)cc5[nH]4)cc3[nH]2)cc1` . Reported GI50: 1.71 µM

Form: compound = `CCN(Cc1ccc(F)cc1)c1cc(Cl)c(CO)c(Cl)c1` ; GI50 = 6.56 µM

// GI50 value for `Cc1ccc(-n2c3nc(=O)[nH]c(=O)c-3cc3cc([N+](=O)[O-])ccc32)cc1` : 26.7 µM

Value of GI50 reported for the compound `Cc1nnc(NC(=O)c2nc(S(=O)(=O)Cc3ccc(F)cc3)ncc2Cl)s1` is 2.1 µM

Recorded result, `COc1ccc(-c2cn[nH]c2-c2cc(OC)c(OC)c(OC)c2)cc1` , GI50: 0.558 µM

The recorded GI50 for entry `O=C(Oc1ccc(Cl)cc1)c1ccccc1Nc1ccnc(C(F)(F)F)c1` equals 4.51 µM

Quick note, GI50 for `Nc1c(C(=O)Nc2cccc(C(F)(F)F)c2)sc2nc3c(cc12)CCCCC3` landed at 3.64 µM

Field GI50 (entry `Nc1cc(NN=C(c2ccc(O)cc2)c2ccc(O)cc2)c([N+](=O)[O-])cc1[N+](=O)[O-]` ) reads 4.3 µM

----------
system: XF 498 CNS; test: NCI tumour cell line growth inhibition, 48 h
# cutoff 30 µM applies to TGI; >= gives 1.0, < gives 0.0

## Task Is TGI for `COc1ccc2cc1Oc1ccc(cc1)C[C@H]1c3cc(c(OC)cc3CCN1C)Oc1c(O)c(OC)cc3c1[C@H](C2)N(C)CC3` at or above 30 µM?
## Result 1.0

## Task # check: TGI of Nc1nc(SCCC/C=C/I)nc2c1ncn2C1OC(COP(=O)(O)O)C(O)C1O (centres undefined) is greater than or equal to 30 µM
## Result 1.0

## Task Is reported TGI greater than or equal to 30 µM here: `Cc1ccc(/C=C/C(=O)CCN(C)C)cc1`
## Result 0.0

## Task Exam item: decide whether the reported TGI for Cc1cccc(C)c1NC(=O)CCCC(=O)C1/C(=N/NC(=O)CC#N)CCC/C1=N\NC(=O)CC#N (centres undefined) is at least 30 µM.
## Result 1.0

## Task State whether the measured TGI reaches 30 µM, counting equality as reaching it, for `CCCCCCCC/C=C\CCCCCCCCCCCC(=O)O`
## Result 0.0

## Task Please indicate if the recorded TGI for `N#C/C(=C1/Sc2c(nc[nH]c2=O)N1c1ccccc1)c1nc2ccccc2[nH]1` meets or exceeds 30 µM.
## Result 1.0

## Task Is reported TGI greater than or equal to 30 µM here: `N#C/C(=C\c1cccc(Cl)c1Cl)c1ccccc1`
## Result 1.0

## Task Is the recorded value of TGI equal to or greater than 30 µM for this compound? `O=C1C=CC(=O)c2nc3c(cc21)CCC3`
## Result 1.0

----------
Assign GI50 to each entry below.
test system: OVCAR-4 ovarian; assay: NCI tumour cell line growth inhibition, 48 h

Item: `O=C1c2cc3c(cc2-c2c1c1ccc(F)cc1c(=O)n2C[C@H](O)[C@@H](O)[C@H](O)CO)OCO3` | GI50: 185 nM

Just so you know, measured GI50 for `COc1cc(/C(C#N)=C/c2nc3c(N4CCOCC4)nc(Cl)nc3n2C)cc(OC)c1OC` came out at < 10 nM

Entry `Nc1n[nH]c2cccc(C#Cc3cccc(C(=O)Nc4ccc(CN5CCOCC5)c(C(F)(F)F)c4)c3)c12` , GI50 reported as 2150 nM

Short answer for `COc1ccc(/C=N/NC(=O)c2cccc3cc[nH]c23)cc1O` : GI50 was 10300 nM

The reported GI50 of the molecule `COc1ccc(CCN=C2NC(=O)/C(=C/c3ccc4ncccc4c3)S2)cc1` was > 25000 nM

----------
tested on: HT29 colon; experiment: NCI tumour cell line growth inhibition, 48 h
value-kind: GI50

Quick note, GI50 for `CN1CC[C@@H](NC(=O)Nc2ccc(C#N)cc2)C[C@@H]1c1nc2ccccc2[nH]1` landed at > 74200 nM

GI50 recorded for this molecule, `CCCCCCCCCCn1cc[n+](C)c1` , is 2230 nM

Item: `Cc1csc(-c2nnc(Nc3ccc(Oc4ncccc4-c4ccnc(N)n4)cc3)c3ccccc23)c1` | GI50: 558 nM

// `C=C1C(=O)O[C@H]2[C@H]1CC/C(COC(=O)NCc1ccc(Cn3c(=O)sn(-c4ccc(OC)cc4)c3=O)cc1)=C\CC[C@@]1(C)O[C@@H]21` : GI50 value = 1960 nM

Looking up `CC(C)[C@@H]1C=C2CC[C@H]3[C@](C)(CN)CCC[C@]3(C)[C@H]2CC1` , I found its GI50 recorded as 1840 nM

----------
system: MCF7 breast; assay: NCI tumour cell line growth inhibition, 48 h
I'd appreciate it if you could supply TGI values for the items below.
// note: answer is a bare numeric in µM

Record `O=C(Nc1ccc(Oc2ccc(Nc3nc4ccccc4s3)cc2)cc1)Nc1ccc(Cl)c(C(F)(F)F)c1` , field TGI: 3.7

// sample `S=C(N/N=C(/c1ccccc1)c1ccccn1)N(Cc1ccccn1)Cc1ccccn1` , its TGI was 5.02

Entry COc1ccc2nc3cc(Cl)ccc3c(NCCNCC(C)O)c2c1 (stereo not drawn) — recorded TGI = 5.51

Entry COc1cc(S(=O)(=O)Nc2nc(-c3ccc(N4C(=O)C(CC(=O)O)SC4c4cccs4)cc3)cs2)ccc1Cl (stereo not drawn) — recorded TGI = 65.8

// `CCCCCCCCCCn1cc[n+](C)c1` : TGI value = 13.6

Consider `Nc1c(-c2ccc(Cl)c(Cl)c2)c2ccc([N+](=O)[O-])cc2c(=O)n1-c1nc2ccccc2s1` . Its measured TGI is 21.1

----------
system: SW-620 colon; assay: NCI tumour cell line growth inhibition, 48 h; in the data active means GI50 below about 0.43 µM; inactive means the rest
Select the matching outcome among active, inactive

## Task Tell me the recorded outcome of this test for `Cc1cc(I)cc(CN(CCCN(C)C)C(C)C)c1O` .
## Result inactive

## Task Outcome? `N#Cc1c[nH]n2c(N=Nc3ccc(Cl)cc3)c(O)nc12`
## Result inactive

## Task // outcome(item) with item = `COc1cc(/C(C#N)=C/c2nc3c(N4CCOCC4)nc(Cl)nc3n2C)cc(OC)c1OC`
## Result active

## Task Kindly provide the recorded test outcome for the following compound: COc1ccc2nc3cc(Cl)ccc3c(NCCNCC(C)O)c2c1 (stereo not given)
## Result inactive

## Task Write down the call the test reported for this compound. Item: COc1cccc(C(=O)NC(c2ccc(C)cc2)c2cc(Cl)c3cccnc3c2O)c1 (stereo not given)
## Result active

## Task I'd appreciate the recorded outcome for `CC(C)[C@@H]1C=C2CC[C@H]3[C@](C)(CN)CCC[C@]3(C)[C@H]2CC1` from this test.
## Result inactive

## Task Short answer needed: outcome of this test for `CCOC(=O)C1=C(C)N(c2ccc(F)cc2F)[C@]2(C#N)C(O)=C(Cl)C(Cl)=C(O)[C@]12C#N` ?
## Result inactive

## Task Entry `COc1ccc(CN2C(=O)/C(=C\c3cc(OC)c(OC)c(OC)c3)c3ccccc32)cc1` : call = ?
## Result inactive

## Task Dear colleague, could you share the recorded outcome for `O=c1ccc2ccccc2cc1[O-].O=c1ccc2ccccc2cc1[O-].[O]=[U+2]=[O]` when you have a moment?
## Result inactive

## Task Hey, what did the test say about `COc1ccc(/C=N/NC(=O)c2cccc3cc[nH]c23)cc1O` ?
## Result inactive

----------
tested on: RXF 393 renal; test: NCI tumour cell line growth inhibition, 48 h; in the data active = GI50 below about 0.43 µM; inactive = the rest
The reply should name one outcome from active, inactive

## Task Which outcome did this test record for the compound `COc1ccc(-c2cn[nH]c2-c2cc(OC)c(OC)c(OC)c2)cc1` ?
## Result active

## Task # outcome recorded in this test, key = `CCOC(=O)C1=C(C)N(c2ccc(F)cc2F)[C@]2(C#N)C(O)=C(Cl)C(Cl)=C(O)[C@]12C#N`
## Result inactive

## Task Record request — test call for `Nc1c(C(=O)Nc2cccc(C(F)(F)F)c2)sc2nc3c(cc12)CCCCC3`
## Result inactive

## Task Please share the test call associated with `O=C(CCCSc1nc(-c2ccccc2)cc(-c2ccccc2)n1)NO` .
## Result inactive

## Task # lookup: test call for COc1ccc2nc3cc(Cl)ccc3c(NCCNCC(C)O)c2c1 (stereo unspecified)
## Result inactive

## Task Just curious, what result did `Nc1ccc(C2=NNC(=O)Cc3cc4c(cc32)OCCO4)cc1Cl` get here?
## Result inactive

## Task Each compound tested received a call. Report the one for `O=C(/C(=C/c1ccc([N+](=O)[O-])cc1)SCc1ccccc1)c1ccc(Cl)cc1` .
## Result inactive

## Task What call does the record list for `COc1ccc(CCN=C2NC(=O)/C(=C/c3ccc4ncccc4c3)S2)cc1` ?
## Result inactive

## Task Returns: the outcome recorded for `O=C(Nc1ccc(Oc2ccc(Nc3nc4ccccc4s3)cc2)cc1)Nc1ccc(Cl)c(C(F)(F)F)c1` in this assay.
## Result inactive

## Task So what was the verdict on Nc1n[nH]c2cc(F)c([C@@H]3Nc4ccc5[nH]ncc5c4[C@H]4C5CCC(C5)[C@@H]34)cc12 (stereo partly specified) in this test?
## Result active

## Task Given `COCCOc1ccc(-c2nc3ccc(-c4nc5ccc(N6CCN(C)CC6)cc5[nH]4)cc3[nH]2)cc1` , state the outcome it received in this test.
## Result inactive
